Target: HLA-A*02:03
Assay: IEDB peptide-MHC binding, purified MHC/competitive/radioactivity; bounds were set here for any values at or beyond the usual limits of such assays
Assay Setup: source organism: Vaccinia virus WR
pIC50: −log10 of the molar value.
Each entry gets False if its pIC50 stays under 7, and True if its pIC50 is 7 or above.

Illustrative cases are given below, each with its answer.
- Residue Sequence: "NIFMTLVPV"
  Category Label: "True"
- Residue Sequence: "MVTDKTAYI"
  Category Label: "True"
- Residue Sequence: "IVNTTYDFL"
  Category Label: "False"
- Residue Sequence: "ILYYGANGST"
  Category Label: "True"
- Residue Sequence: "RLQMAGVEV"
  Category Label: "False"
- Residue Sequence: "NIDSIMSMM"
  Category Label: "False"

Quick check, pIC50 >= 7? KLLNMRDLIV
True

Quick check, pIC50 >= 7? TITTFIPISA
False

Quick check, pIC50 >= 7? KTIISEEYL
False

Quick check, pIC50 >= 7? LINLVQYRI
False

Quick check, pIC50 >= 7? KVEKYLPEV
False

Quick check, pIC50 >= 7? KVYNGIFVDT
False

Quick check, pIC50 >= 7? AAVTLNRIKI
False

Quick check, pIC50 >= 7? CTMERTNDL
True

* * *

Target: HLA-A*02:02
Assay: IEDB peptide-MHC binding, purified MHC/competitive/radioactivity; bounds were set here for any values at or beyond the usual limits of such assays
Assay Setup: source organism: Vaccinia virus WR
pIC50: −log10 of the molar value.
Each entry gets F if its pIC50 stays under 7, and T if its pIC50 is 7 or above.

Illustrative cases are given below, each with its answer.
- Residue Sequence: "YIRRNMINKL"
  Category Label: "F"
- Residue Sequence: "EILSNTTKTL"
  Category Label: "F"
- Residue Sequence: "CTMERTNDL"
  Category Label: "T"
- Residue Sequence: "YLRLYIILA"
  Category Label: "T"

Here is another sequence to look at.
Quick check, pIC50 >= 7? AISYCRAFI
T

* * *

sequences and their reported IC50
Target: HLA-A*02:01
Assay: IEDB peptide-MHC binding, cellular MHC/competitive/fluorescence; bounds were set here for any values at or beyond the usual limits of such assays
Assay Setup: source organism: Vaccinia virus WR
Report the figure in µM without appending any unit label.

Reference set (6 entries):
- Residue Sequence: "LAGYILTVL"
  Experimental Result: 11.6
- Residue Sequence: "FQESFYEDI"
  Experimental Result: 12.9
- Residue Sequence: "DLNRMPTDML"
  Experimental Result: 17.3
- Residue Sequence: "AVEHIPTMKI"
  Experimental Result: 14.3
- Residue Sequence: "EQRRSTIFDI"
  Experimental Result: 22.5
- Residue Sequence: "ATYHIIIVA"
  Experimental Result: 6.42

Lab note: measured IC50 of NISFKSINKV was 14.5

Lab note: measured IC50 of PMNVDNLIM was 17.4

Lab note: measured IC50 of CTMERTNDLT was 18.6

Lab note: measured IC50 of KITFALKKL was 17.8

Lab note: measured IC50 of SVQLSNNKYV was 55

Lab note: measured IC50 of EAVKDKNWTV was 14.8

Lab note: measured IC50 of YIEDELRRA was 5.41

Lab note: measured IC50 of ATESDAIRT was 10.8

Lab note: measured IC50 of HMYRGGNGNT was 19.3

Lab note: measured IC50 of QMNARGVKV was 5.14

Lab note: measured IC50 of DLENNLVKL was 16.2

Lab note: measured IC50 of VTFNPVSDI was 46.3
